- procedure summary: NCI Yeast Anticancer Drug Screen. Data for the mec2-1 strain (AID 157)
- condition description: S. cerevisiae mec2-1 strain, at 33.0 µM, active compounds read high
Compounds without any hit were thinned out: in the full panel of roughly 79,000, 15% have a hit.
Please go through the items and note down their growth inhibition.
Give bare numbers, in %.

Observe how each entry below is paired with its result.
- COc1ccc2c3c1OC(C)C31CC(=O)CCC1CC2 (stereo not drawn): -3
- c1ccc(-c2cc(C3CO3)c3ccccc3n2)cc1 (stereo not drawn): 7

Consider the additional molecule presented here.
Challenge: In one line, give reported growth inhibition of the entry C[n+]1c(/C=C/c2ccc(/C=N/NC(=O)c3ccc(C(=O)N/N=C/c4ccc(/C=C/c5cn6ccccc6[n+]5C)cc4)cc3)cc2)cn2ccccc21 .
Response given: 97
